test system: Sindbis virus TE/5'2J-GFP; experiment: percent infected (GFP+ in RFP+ ISG-expressing cells); higher = more infection (less antiviral activity); conditions: experiment: confirmatory screen 2; BHK/NZAP-Zeo (ZAP)
Quantity Kind: percent infected (%)
Write the answer as a number in %, unit excluded.

{"Monomer Sequence": "MPGKKARKNAQPSPARAPAELEVECATQLRRFGDKLNFRQKLLNLISKLFCSGT [PMAIP1]", "Target Entity": "Sindbis virus TE/5'2J-GFP", "Units Label": "%", "percent infected": 93.2}

Tell me the measured percent infected of MIAAQAKLVYQLNKYYTERCQARKAAIAKTIREVCKVVSDVLKEVEVQEPRFISSLSEIDARYEGLEVISPTEFEVVLYLNQMGVFNFVDDGSLPGCAVLKLSDGRKRSMSLWVEFITASGYLSARKIRSRFQTLVAQAVDKCSYRDVVKMIADTSEVKLRIRERYVVQITPAFKCTGIWPRSAAQWPMPHIPWPGPNRVAEVKAEGFNLLSKECYSLTGKQSSAESDAWVLQFGEAENRLLMGGCRNKCLSVLKTLRDRHLELPGQPLNNYHMKTLLLYECEKHPRETDWDESCLGDRLNGILLQLISCLQCRRCPHYFLPNLDLFQGKPHSALESAAKQTWRLAREILTNPKSLDKL [MAB21L2] , please.
93.8

###

Reported percent infected values for the following sequences.
system: Sindbis virus TE/5'2J-GFP; assay: percent infected (GFP+ in RFP+ ISG-expressing cells); higher = more infection (less antiviral activity); settings: experiment: confirmatory screen 2; BHK/HA-Zeo (control)
Please give a number only; it is taken to be in %.

# annotated cases, reported percent infected shown
{"Monomer Sequence": "MNTRNRVVNSGLGASPASRPTRDPQDPSGRQGELSPVEDQREGLEAAPKGPSRESVVHAGQRRTSAYTLIAPNINRRNEIQRIAEQELANLEKWKEQNRAKPVHLVPRRLGGSQSETEVRQKQQLQLMQSKYKQKLKREESVRIKKEAEEAELQKMKAIQREKSNKLEEKKRLQENLRREAFREHQQYKTAEFLSKLNTESPDRSACQSAVCGPQSSTWKLPILPRDHSWARSWAYRDSLKAEENRKLQKMKDEQHQKSELLELKRQQQEQERAKIHQTEHRRVNNAFLDRLQGKSQPGGLEQSGGCWNMNSGNSWGI [EPSTI1]", "percent infected [%]": 96.8}
{"Monomer Sequence": "MRTSYLLLFTLCLLLSEMASGGNFLTGLGHRSDHYNCVSSGGQCLYSACPIFTKIQGTCYRGKAKCCK [DEFB1]", "percent infected [%]": 95.1}

Pending sequence:
Report percent infected for MEKLLCFLVLTSLSHAFGQTDMSRKAFVFPKESDTSYVSLKAPLTKPLKAFTVCLHFYTELSSTRGYSIFSYATKRQDNEILIFWSKDIGYSFTVGGSEILFEVPEVTVAPVHICTSWESASGIVEFWVDGKPRVRKSLKKGYTVGAEASIILGQEQDSFGGNFEGSQSLVGDIGNVNMWDFVLSPDEINTIYLGGPFSPNVLNWRALKYEVQGEVFTKPQLWP [CRP] please.
95.1

###

system: Sindbis virus TE/5'2J-GFP; test: percent infected (GFP+ in RFP+ ISG-expressing cells); higher = more infection (less antiviral activity); conditions: experiment: confirmatory screen 2; BHK/NZAP-Zeo (ZAP)
Recorded percent infected, one value per entry.

{"Monomer Sequence": "MKKSGVLFLLGIILLVLIGVQGTPVVRKGRCSCISTNQGTIHLQSLKDLKQFAPSPSCEKIEIIATLKNGVQTCLNPDSADVKELIKKWEKQVSQKKKQKNGKKHQKKKVLKVRKSQRSRQKKTT [CXCL9]", "percent infected": "91.5%"}
{"Monomer Sequence": "MASVIPASNRSMRSDRNTYVGKRFVHVKNPYLDLMDEDILYHLDLGTKTHNLPAMFGDVKFVCVGGSPNRMKAFALFMHKELGFEEAEEDIKDICAGTDRYCMYKTGPVLAISHGMGIPSISIMLHELIKLLHHARCCDVTIIRIGTSGGIGIAPGTVVITDIAVDSFFKPRFEQVILDNIVTRSTELDKELSEELFNCSKEIPNFPTLVGHTMCTYDFYEGQGRLDGALCSFSREKKLDYLKRAFKAGVRNIEMESTVFAAMCGLCGLKAAVVCVTLLDRLDCDQINLPHDVLVEYQQRPQLLISNFIRRRLGLCD [UPP2]", "percent infected": "93.4%"}
{"Monomer Sequence": "MFAKGKGSAVPSDGQAREKLALYVYEYLLHVGAQKSAQTFLSEIRWEKNITLGEPPGFLHSWWCVFWDLYCAAPERRDTCEHSSEAKAFHDYSAAAAPSPVLGNIPPNDGMPGGPIPPGFFQGPPGSQPSPHAQPPPHNPSSMMGPHSQPFMSPRYAGGPRPPIRMGNQPPGGVPGTQPLLPNSMDPTRQQGHPNMGGSMQRMNPPRGMGPMGPGPQNYGSGMRPPPNSLGPAMPGINMGPGAGRPWPNPNSANSIPYSSSSPGTYVGPPGGGGPPGTPIMPSPADSTNSSDNIYTMINPVPPGGSRSNFPMGPGSDGPMGGMGGMEPHHMNGSLGSGDIDGLPKNSPNNISGISNPPGTPRDDGELGGNFLHSFQNDNYSPSMTMSV [SSBP3]", "percent infected": "95.1%"}
{"Monomer Sequence": "MHQSLTQQRSSDMSLPDSMGAFNRRKRNSIYVTVTLLIVSVLILTVGLAATTRTQNVTVGGYYPGVILGFGSFLGIIGSNLIENKRQMLVASIVFISFGVIAAFCCAIVDGVFAARHIDLKPLYANRCHYVPKTSQKEAEEVISSSTKNSPSTRVMRNLTQAAREVNCPHLSREFCTPRIRGNTCFCCDLYNCGNRVEITGGYYEYIDVSSCQDIIHLYHLLWSATILNIVGLFLGIITAAVLGGFKDMNPTLPALNCSVENTHPTVSYYAHPQVASYNTYYHSPPHLPPYSAYDFQHSGVFPSSPPSGLSDEPQSASPSPSYMWSSSAPPRYSPPYYPPFEKPPPYSP [FAM70A]", "percent infected": "95.6%"}

I would be grateful if you could share the reported percent infected for MLQRGLWPWRTRLLPTPGTWRPARPWPLPPPPQVLRVKLCGNVKYYQSHHYSTVVPPDEITVIYRHGLPLVTLTLPSRKERCQFVVKPMLSTVGSFLQDLQNEDKGIKTAAIFTADGNMISASTLMDILLMNDFKLVINKIAYDVQCPKREKPSNEHTAEMEHMKSLVHRLFTILHLEESQKKREHHLLEKIDHLKEQLQPLEQVKAGIEAHSEAKTSGLLWAGLALLSIQGGALAWLTWWVYSWDIMEPVTYFITFANSMVFFAYFIVTRQDYTYSAVKSRQFLQFFHKKSKQQHFDVQQYNKLKEDLAKAKESLKQARHSLCLQMQVEELNEKN [CCDC109B] .
95.6%

###

system: Sindbis virus TE/5'2J-GFP; test: percent infected (GFP+ in RFP+ ISG-expressing cells); higher = more infection (less antiviral activity); conditions: experiment: confirmatory screen 3; BHK/HA-Zeo (control)
Quantity Kind: percent infected (%)
Supply the numeric figure in %, leaving out any unit text.

Please look up its percent infected: MHQSLTQQRSSDMSLPDSMGAFNRRKRNSIYVTVTLLIVSVLILTVGLAATTRTQNVTVGGYYPGVILGFGSFLGIIGSNLIENKRQMLVASIVFISFGVIAAFCCAIVDGVFAARHIDLKPLYANRCHYVPKTSQKEAEEVISSSTKNSPSTRVMRNLTQAAREVNCPHLSREFCTPRIRGNTCFCCDLYNCGNRVEITGGYYEYIDVSSCQDIIHLYHLLWSATILNIVGLFLGIITAAVLGGFKDMNPTLPALNCSVENTHPTVSYYAHPQVASYNTYYHSPPHLPPYSAYDFQHSGVFPSSPPSGLSDEPQSASPSPSYMWSSSAPPRYSPPYYPPFEKPPPYSP [FAM70A]
94.9

###

test system: Sindbis virus TE/5'2J-GFP; assay: percent infected (GFP+ in RFP+ ISG-expressing cells); higher = more infection (less antiviral activity); conditions: experiment: confirmatory screen 2; BHK/NZAP-Zeo (ZAP);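 also: Interferon-defective BHK-21 derivatives, ZAP line overexpressing the rat ZAP N-terminal zinc finger domain fused to Zeocin resistance, GFP scored within live singlet TagRFP+ cells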
Quantity Kind: percent infected (%)
# number only, unit % dropped from output

Below, each entry is followed by its recorded percent infected result.
{"Monomer Sequence": "MNTRNRVVNSGLGASPASRPTRDPQDPSGRQGELSPVEDQREGLEAAPKGPSRESVVHAGQRRTSAYTLIAPNINRRNEIQRIAEQELANLEKWKEQNRAKPVHLVPRRLGGSQSETEVRQKQQLQLMQSKYKQKLKREESVRIKKEAEEAELQKMKAIQREKSNKLEEKKRLQENLRREAFREHQQYKTAEFLSKLNTESPDRSACQSAVCGPQSSTWKLPILPRDHSWARSWAYRDSLKAEENRKLQKMKDEQHQKSELLELKRQQQEQERAKIHQTEHRRVNNAFLDRLQGKSQPGGLEQSGGCWNMNSGNSWGI [EPSTI1]", "Units Label": "%", "percent infected": 95.9}
{"Monomer Sequence": "MEKGPVRAPAEKPRGARCSNGFPERDPPRPGPSRPAEKPPRPEAKSAQPADGWKGERPRSEEDNELNLPNLAAAYSSILSSLGENPQRQGLLKTPWRAASAMQFFTKGYQETISDVLNDAIFDEDHDEMVIVKDIDMFSMCEHHLVPFVGKVHIGYLPNKQVLGLSKLARIVEIYSRRLQVQERLTKQIAVAITEALRPAGVGVVVEATHMCMVMRGVQKMNSKTVTSTMLGVFREDPKTREEFLTLIRS [GCH1]", "Units Label": "%", "percent infected": 93.4}

Shifting focus to the sequence that follows.
Enter reported percent infected observed with Sindbis virus TE/5'2J-GFP for MRTSYLLLFTLCLLLSEMASGGNFLTGLGHRSDHYNCVSSGGQCLYSACPIFTKIQGTCYRGKAKCCK [DEFB1]
93
